- System: SR
- procedure.details: NCI tumour cell line growth inhibition, 48 h
Activity calls are given as the source filed them. Rule as the data show it: active = GI50 up to about 1.1 µM and inactive = higher.
measurement.label: GI50

1) Cc1ns/c(=N\C(=S)N(C)C)n1C    > 100 µM (inactive)
2) OCC(CN1CCCCC1)(CN1CCCCC1)CN1CCCCC1    > 100 µM (inactive)
3) CCCCCC(O)C(O)CCC[C@H](O)[C@H]1CC[C@H]([C@H]2CC[C@H]([C@H](O)CCCCCCCCCCCCC3=C[C@H](C)OC3=O)O2)O1 (stereo partly specified)    4.15 µM (inactive)
4) O=C(O)c1ccccc1/C=N/N=C1c2ccccc2-c2ccccc21    27.3 µM (inactive)
5) CN(C)Cc1cc(/N=N/c2ccccc2Cl)ccc1O    26.5 µM (inactive)
6) Nc1nc(-c2ccccc2)c(-c2ccccc2)c(-c2nc(N)nc(-c3ccccc3)c2-c2ccccc2)n1    > 100 µM (inactive)
7) Cc1ccc(S(=O)(=O)SCc2ccccc2)cc1    28 µM (inactive)
8) Cc1ccc2[nH]c3[nH]c(=S)[nH]c(=O)c3c2c1    > 100 µM (inactive)
9) O=C1C=CC(=C(c2ccccc2)c2ccc(O)cc2)C=C1    7.45 µM (inactive)
10) CCCCCCCCCCCC[N+](CCCCCCCCCCCC)=C1SCCS1    3.14 µM (inactive)
11) CC(=O)O[C@H]1CC[C@@]2(C)C(=CC[C@@H]3[C@@H]2CC[C@]2(C)C(=N/O)/C(=C\c4ccccc4)C[C@@H]32)C1    3.27 µM (inactive)
12) CCCC[N+](CCCC)(CCCC)CCCC.O=S(=O)([O-])ON=C1c2ccccc2-c2ccccc21    > 100 µM (inactive)
13) CC(Oc1ccc2c(=O)cc(-c3ccccc3)oc2c1)C(=O)O (stereo unspecified)    > 100 µM (inactive)
14) CC(C)(C)c1cc(C2=NNC(c3ccccc3)C2)cc(C(C)(C)C)c1O (stereo unspecified)    5.58 µM (inactive)
15) COc1ccc(OC)c2sc(N3C(=O)/C(=C/c4ccccc4S)N=C3c3ccccc3)nc12    14.4 µM (inactive)
16) CCOC(=O)Oc1ccc(C(CNC(C)C)OC(=O)OCC)cc1OC(=O)OCC (stereo unspecified)    > 100 µM (inactive)
17) O=C1NN=C(c2ccc(Cl)cc2)CC1C1C(=O)N(c2ccccc2)N=C1c1ccccc1 (stereo unspecified)    93.1 µM (inactive)
18) CC(=O)OC12CC(C)C3(O)C4C=C(C)C(=O)[C@@]4(O)CC(CO)=C[C@H]3C1C2(C)C (stereo partly specified)    > 10 µM (inactive)
19) CCOC(=O)C(NC(=O)Nc1ccccc1)(Nc1cccc(Cl)c1)C(F)(F)F (stereo unspecified)    > 100 µM (inactive)
20) CCOC1C=CCCO1 (stereo unspecified)    > 100 µM (inactive)
21) CC1C(c2ccc3c(c2)OCO3)c2cc3c(cc2OC1N1CCCCC1)OCO3 (stereo unspecified)    37.8 µM (inactive)
